Item-by-item account of OD 450 nm
# target-of-assay: T1, Human hepcidin peptide (hepcidin-25) (human)
# T1 construct: Synthetic 25 aa peptide; also called hep-25; Hep-25
# T1 peptide: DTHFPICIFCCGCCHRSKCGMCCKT
# assay-procedure: titration affinity ELISA, hepcidin 100 ng/well on Nunc Immobilizer Amino plate, CHO supernatant; antibody 12.5 ng/ml
State the answer as a number, implicitly in OD450.

INSERT INTO assay_data (binder, result_number) VALUES
  ('BAP070-01 (human-mouse chimeric MAb 583) (antibody, human IgG1, kappa, V domains shown, used as CHO cell supernatant; also called BAP070-1) VH: QIQLVQSGPELKKPGETVKISCKASGYTFTNYGMNWVKQAPGKGLKWMGWINTYTGEPTYADDFKGRFAFSLETSASTAYLQINNLKNEDTATYFCTTYATSWYWGQGTLVTVSS VL: DIVLTQSPASLAVSLGQRATISCRASESVDSYGNSFMHWYQQKPGQPPKLLIYRASNLESGIPARFSGSGSRTDFTLTINPVEADDVATYYCQQSNEDLTFGQGTKVEIKR', 1.8),
  ('BAP070-hum05 (antibody, IgG1, V domains shown, Expressed as soluble IgG1 in CHO cells, tested as supernatant; The entries stop inside FR4) VH: EVQLVQSGAEVKKPGESLRISCKGSGYTFTNYGMNWIRQPPGKGLEWIGWINTYTGEPTYADDFKGRVTISADKSISTAYLQWSSLKASDTAMYYCTTYATSWYWGQG VL: DIQMTQSPSSLSASVGDRVTITCRASESVDSYGNSFMHWYQQKPGQAPRLLIYRASNLESGVPSRFSGSGSGTDFTFTISSLQPEDIATYYCQQSNEDLTFG', 1.94);

# ---- query binder ----
Record BAP070-hum03 (antibody, IgG1, V domains shown, Expressed as soluble IgG1 in CHO cells, tested as supernatant; The entries stop inside FR4) VH: QVQLVQSGAEVKKPGASVKVSCKASGYTFTNYGMNWVRQATGQGLEWMGWINTYTGEPTYADDFKGRFVFSLDTSVSTAYLQICSLKAEDTAVYYCTTYATSWYWGQG VL: AIQLTQSPSSLSASVGDRVTITCRASESVDSYGNSFMHWYQQKPGQAPRLLIYRASNLESGVPSRFSGSGSGTDFTFTISSLQPEDIATYYCQQSNEDLTFG , field OD 450 nm: 1.95
